- assay: clinical
- cond: human, in vivo, po, 800 mg, Cmax
observed_property: Cmax (ng/mL)
Just the number please, in ng/mL, no unit attached.

Query string: Give a short answer stating reported Cmax for O=c1nc(NO)ccn1C1OC(CO)C(O)C1O (stereo not shown) .
Result string: 3640

---

- assay: clinical
- cond: human, in vivo, 50 mg, AUCt
observed_property: AUC(0-t) (ng·h/mL)
Just the number please, in ng·h/mL, no unit attached.

Query string: Give a short answer stating reported AUC(0-t) for O=c1nc(NO)ccn1C1OC(CO)C(O)C1O (stereo not shown) .
Result string: 461

---

- assay: clinical
- cond: human, in vivo, po, 600 mg, Cmax
observed_property: Cmax (ng/mL)
Just the number please, in ng/mL, no unit attached.

Query string: Give a short answer stating reported Cmax for O=c1nc(NO)ccn1C1OC(CO)C(O)C1O (stereo not shown) .
Result string: 2720

---

- assay: clinical
- cond: human, in vivo, po, 100 mg, t1/2
observed_property: half-life (min)
Just the number please, in min, no unit attached.

Query string: Give a short answer stating reported half-life for O=c1nc(NO)ccn1C1OC(CO)C(O)C1O (stereo not shown) .
Result string: 54.4

---

- assay: in vitro
- cond: male, CD-1, mouse, plasma
Please go through the items and note down their half-life at 1 μM.
Just the number please, in min, no unit attached.

Query string: Give a short answer stating reported half-life at 1 μM for CC(C)[C@H](N)C(=O)OC[C@H]1O[C@@H](n2ccc(NO)nc2=O)[C@H](O)[C@@H]1O .
Result string: 144

Query string: Give a short answer stating reported half-life at 1 μM for CC(C)C(=O)OC[C@H]1O[C@@H](n2ccc(NO)nc2=O)[C@H](O)[C@@H]1O .
Result string: 1

Query string: Give a short answer stating reported half-life at 1 μM for CC(C)C(=O)OC[C@H]1O[C@@H](n2ccc(NO)nc2=O)[C@H](OC(=O)C(C)C)[C@@H]1OC(=O)C(C)C .
Result string: 1

---

- assay: clinical
- cond: human, in vivo, po, 200 mg, AUCinf
observed_property: AUC(0-inf) (ng·h/mL)
Just the number please, in ng·h/mL, no unit attached.

Query string: Give a short answer stating reported AUC(0-inf) for O=c1nc(NO)ccn1C1OC(CO)C(O)C1O (stereo not shown) .
Result string: 1830

---

- assay: clinical
- cond: human, in vivo, po, 1200 mg, AUCinf
observed_property: AUC(0-inf) (ng·h/mL)
Just the number please, in ng·h/mL, no unit attached.

Query string: Give a short answer stating reported AUC(0-inf) for O=c1nc(NO)ccn1C1OC(CO)C(O)C1O (stereo not shown) [EIDD-1931] .
Result string: 13800

---

- assay: clinical
- cond: human, in vivo, po, 50 mg, Cmax
observed_property: Cmax

Query string: Give a short answer stating reported Cmax for O=c1nc(NO)ccn1C1OC(CO)C(O)C1O (stereo not shown) [EIDD-1931] .
Result string: 223 ng/mL

---

- assay: clinical
- cond: human, in vivo, po, 1600 mg, tmax (median)
observed_property: Tmax (h)
Just the number please, in h, no unit attached.

Query string: Give a short answer stating reported Tmax for O=c1nc(NO)ccn1C1OC(CO)C(O)C1O (stereo not shown) [EIDD-1931] .
Result string: 1.5

---

- assay: in vitro
- cond: monkey, microsomes, pH 7.4
observed_property: half-life (min)
Just the number please, in min, no unit attached.

Query string: Give a short answer stating reported half-life for CC(C)[C@H](N)C(=O)OC[C@H]1O[C@@H](n2ccc(NO)nc2=O)[C@H](O)[C@@H]1O [EIDD-2898] .
Result string: 13

---

- assay: clinical
- cond: human, in vivo, po, 800 mg, AUClast
observed_property: AUC(0-t)
Number first, unit second: that is the form wanted.

Query string: Give a short answer stating reported AUC(0-t) for O=c1nc(NO)ccn1C1OC(CO)C(O)C1O (stereo not shown) .
Result string: 8720 ng·h/mL

---

- assay: clinical
- cond: human, in vivo, po, 400 mg, AUClast
observed_property: AUC(0-t)

Query string: Give a short answer stating reported AUC(0-t) for O=c1nc(NO)ccn1C1OC(CO)C(O)C1O (stereo not shown) [EIDD-1931] .
Result string: 4000 ng·h/mL

---

- assay: clinical
- cond: human, in vivo, po, 100 mg, Cmax
observed_property: Cmax (ng/mL)
Just the number please, in ng/mL, no unit attached.

Query string: Give a short answer stating reported Cmax for O=c1nc(NO)ccn1C1OC(CO)C(O)C1O (stereo not shown) .
Result string: 454

---

- assay: clinical
- cond: human, in vivo, 800 mg, AUClast
observed_property: AUC(0-t)
Number first, unit second: that is the form wanted.

Query string: Give a short answer stating reported AUC(0-t) for O=c1nc(NO)ccn1C1OC(CO)C(O)C1O (stereo not shown) [EIDD-1931] .
Result string: 8450 ng·h/mL

---

- assay: clinical
- cond: human, in vivo, 100 mg, t1/2
observed_property: half-life (min)
Just the number please, in min, no unit attached.

Query string: Give a short answer stating reported half-life for O=c1nc(NO)ccn1C1OC(CO)C(O)C1O (stereo not shown) .
Result string: 55.1

---

- assay: clinical
- cond: human, in vivo, 100 mg, AUClast
observed_property: AUC(0-t) (ng·h/mL)
Just the number please, in ng·h/mL, no unit attached.

Query string: Give a short answer stating reported AUC(0-t) for O=c1nc(NO)ccn1C1OC(CO)C(O)C1O (stereo not shown) .
Result string: 835

---

- assay: clinical
- cond: human, in vivo, po, 200 mg, tmax (median)
observed_property: Tmax (h)
Just the number please, in h, no unit attached.

Query string: Give a short answer stating reported Tmax for O=c1nc(NO)ccn1C1OC(CO)C(O)C1O (stereo not shown) [EIDD-1931] .
Result string: 1

---

- assay: clinical
- cond: human, in vivo, 50 mg, t1/2
observed_property: half-life (min)
Just the number please, in min, no unit attached.

Query string: Give a short answer stating reported half-life for O=c1nc(NO)ccn1C1OC(CO)C(O)C1O (stereo not shown) .
Result string: 56.2

---

- assay: clinical
- cond: human, in vivo, po, 600 mg, t1/2
observed_property: half-life (h)
Just the number please, in h, no unit attached.

Query string: Give a short answer stating reported half-life for O=c1nc(NO)ccn1C1OC(CO)C(O)C1O (stereo not shown) .
Result string: 1.06

---

- assay: clinical
- cond: human, in vivo, po, 200 mg, Cmax
observed_property: Cmax (ng/mL)
Just the number please, in ng/mL, no unit attached.

Query string: Give a short answer stating reported Cmax for O=c1nc(NO)ccn1C1OC(CO)C(O)C1O (stereo not shown) .
Result string: 926

---

- assay: clinical
- cond: human, in vivo, 400 mg, AUCt
observed_property: AUC(0-t) (ng·h/mL)
Just the number please, in ng·h/mL, no unit attached.

Query string: Give a short answer stating reported AUC(0-t) for O=c1nc(NO)ccn1C1OC(CO)C(O)C1O (stereo not shown) .
Result string: 3710

---

- assay: clinical
- cond: human, in vivo, po, median tmax
observed_property: Tmax (h)
Just the number please, in h, no unit attached.

Query string: Give a short answer stating reported Tmax for O=c1nc(NO)ccn1C1OC(CO)C(O)C1O (stereo not shown) .
Result string: 1

---

- assay: clinical
- cond: human, in vivo, 200 mg, AUCinf
observed_property: AUC(0-inf) (ng·h/mL)
Just the number please, in ng·h/mL, no unit attached.

Query string: Give a short answer stating reported AUC(0-inf) for O=c1nc(NO)ccn1C1OC(CO)C(O)C1O (stereo not shown) .
Result string: 1660

---

- assay: clinical
- cond: human, in vivo, po, 50 mg, tmax (median)
observed_property: Tmax (h)
Just the number please, in h, no unit attached.

Query string: Give a short answer stating reported Tmax for O=c1nc(NO)ccn1C1OC(CO)C(O)C1O (stereo not shown) .
Result string: 1

---

- assay: in vivo
- cond: ICR (CD-1), mouse, 15 mg/kg
observed_property: AUC(0-inf) (µM·h)
Just the number please, in µM·h, no unit attached.

Query string: Give a short answer stating reported AUC(0-inf) for CC(C)[C@H](N)C(=O)OC[C@H]1O[C@@H](n2ccc(NO)nc2=O)[C@H](O)[C@@H]1O [EIDD-2898] .
Result string: 8.23

---

- assay: clinical
- cond: human, in vivo, 400 mg, AUClast
observed_property: AUC(0-t) (ng·h/mL)
Just the number please, in ng·h/mL, no unit attached.

Query string: Give a short answer stating reported AUC(0-t) for O=c1nc(NO)ccn1C1OC(CO)C(O)C1O (stereo not shown) [EIDD-1931] .
Result string: 3730

---

- assay: clinical
- cond: human, in vivo, po, 600 mg, AUCinf
observed_property: AUC(0-inf)

Query string: Give a short answer stating reported AUC(0-inf) for O=c1nc(NO)ccn1C1OC(CO)C(O)C1O (stereo not shown) .
Result string: 6130 ng·h/mL

Data provenance: patent US20250064844A1
